B1: Pistol ribozyme (parent)
chain: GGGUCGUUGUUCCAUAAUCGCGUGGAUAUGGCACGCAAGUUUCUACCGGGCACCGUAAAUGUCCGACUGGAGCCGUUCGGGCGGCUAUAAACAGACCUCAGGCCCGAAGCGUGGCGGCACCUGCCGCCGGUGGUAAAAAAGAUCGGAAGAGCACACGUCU

Variants of: B1
PROTOCOL DESCRIPTION: aptazyme ON/OFF ratio, guanine; higher = stronger switching; co-transcriptional cleavage with and without guanine
PROPERTY MEASURED: aptazyme ON/OFF ratio
// return just the number, without any unit appended

Given the entry U7G U8A G9U U11A C12U C13A , report its measured aptazyme ON/OFF ratio. 1.02

Do the same for U7C U8C G9C U10G C12A please 1.1

Do the same for U7C U8C G9U U10G U11G C13A please 1.1

Do the same for U7G U8A G9C U10A C12G C13G please 1.06

Do the same for U7A G9A U10G U11A C12G please 1.12

Do the same for U7C U8A U11C C12A C13A please 1.29

Do the same for U7C U8A G9U U10G U11G C12U C13A please 1.11

Do the same for U7C G9A U10C please 4.55

Do the same for U7G U8G G9U U10C C13U please 1.28

Do the same for U7C U10A U11A C12A C13G please 1.11

Do the same for U8C U10C U11A C13A please 1.32

Do the same for U7A U8G G9U U11C C12U C13G please 1.15

Do the same for U8A U10G U11C C12G please 1.53

Do the same for U7G G9U U10A U11G C12A C13U please 1.12

Do the same for U7G U8A G9C C13A please 1.04

Do the same for U7A G9U U11A C12A C13G please 1.16

Do the same for U8C U10A U11A please 1.18

Do the same for U7A U8A G9A U10G U11A C12G C13G please 1.15

Do the same for U7C U8C G9A U10G U11A C12U C13A please 1.19

Do the same for U7C G9U U10A U11G C13G please 1.02

Do the same for U8G G9A U11G C12G C13U please 1.23

Do the same for U7C U8G U10G U11C C13A please 1.24

Do the same for U7G U8C G9C U11A C12U C13U please 1.22

Do the same for U7G G9C U10G U11G C12G C13A please 1.11

Do the same for U7C U8G G9A U10C U11A C12G please 1.13

Do the same for U8G G9C U11C C12A please 1.05

Do the same for U7C U10G U11G C12G C13U please 1.16

Do the same for U7G U8G G9C U10G U11C C12A C13U please 1.12

Do the same for U7G U8C G9A U10C C13A please 1.07

Do the same for U7A U8G G9A U10C C12G please 1.35

Do the same for U8C G9U U10A U11G please 1.74

Do the same for U7A G9A U10C U11A C12G C13U please 1.16

Do the same for U8A G9C U10C U11G C12A C13U please 1.02

Do the same for U8G G9U U11G C12U C13U please 1.16

Do the same for U7C U8G G9U U10G U11C C12G please 1.18

Do the same for U7G U8A G9U U10C U11C C12U C13G please 1.06

Do the same for U7A G9U U10C U11C C12A C13G please 1.06

Do the same for U7C U8A G9U U10C C12U please 1.13

Do the same for U8A G9U U10G U11G C12G please 1.27

Do the same for U8C G9U U10A U11C C12U please 1.11

Do the same for U7C U8A G9A U10G U11A C12U C13A please 1.11

Do the same for U7C G9U U10A C12G please 1.47

Do the same for U7C U8A G9U C12U please 1.34

Do the same for U7G U8A G9U U10C C12A C13A please 1.12

Do the same for U8G C12A C13G please 1.13

Do the same for U7A U10G U11G C12G C13G please 1.28
